Measured values drawn from patent US20250034216A1 for this set.

- Tested On: ITPR2_C579 (Homo sapiens)
- Construct: endogenous in cells; host or cells: 22Rv1
- Sequence (Q14571 whole entry): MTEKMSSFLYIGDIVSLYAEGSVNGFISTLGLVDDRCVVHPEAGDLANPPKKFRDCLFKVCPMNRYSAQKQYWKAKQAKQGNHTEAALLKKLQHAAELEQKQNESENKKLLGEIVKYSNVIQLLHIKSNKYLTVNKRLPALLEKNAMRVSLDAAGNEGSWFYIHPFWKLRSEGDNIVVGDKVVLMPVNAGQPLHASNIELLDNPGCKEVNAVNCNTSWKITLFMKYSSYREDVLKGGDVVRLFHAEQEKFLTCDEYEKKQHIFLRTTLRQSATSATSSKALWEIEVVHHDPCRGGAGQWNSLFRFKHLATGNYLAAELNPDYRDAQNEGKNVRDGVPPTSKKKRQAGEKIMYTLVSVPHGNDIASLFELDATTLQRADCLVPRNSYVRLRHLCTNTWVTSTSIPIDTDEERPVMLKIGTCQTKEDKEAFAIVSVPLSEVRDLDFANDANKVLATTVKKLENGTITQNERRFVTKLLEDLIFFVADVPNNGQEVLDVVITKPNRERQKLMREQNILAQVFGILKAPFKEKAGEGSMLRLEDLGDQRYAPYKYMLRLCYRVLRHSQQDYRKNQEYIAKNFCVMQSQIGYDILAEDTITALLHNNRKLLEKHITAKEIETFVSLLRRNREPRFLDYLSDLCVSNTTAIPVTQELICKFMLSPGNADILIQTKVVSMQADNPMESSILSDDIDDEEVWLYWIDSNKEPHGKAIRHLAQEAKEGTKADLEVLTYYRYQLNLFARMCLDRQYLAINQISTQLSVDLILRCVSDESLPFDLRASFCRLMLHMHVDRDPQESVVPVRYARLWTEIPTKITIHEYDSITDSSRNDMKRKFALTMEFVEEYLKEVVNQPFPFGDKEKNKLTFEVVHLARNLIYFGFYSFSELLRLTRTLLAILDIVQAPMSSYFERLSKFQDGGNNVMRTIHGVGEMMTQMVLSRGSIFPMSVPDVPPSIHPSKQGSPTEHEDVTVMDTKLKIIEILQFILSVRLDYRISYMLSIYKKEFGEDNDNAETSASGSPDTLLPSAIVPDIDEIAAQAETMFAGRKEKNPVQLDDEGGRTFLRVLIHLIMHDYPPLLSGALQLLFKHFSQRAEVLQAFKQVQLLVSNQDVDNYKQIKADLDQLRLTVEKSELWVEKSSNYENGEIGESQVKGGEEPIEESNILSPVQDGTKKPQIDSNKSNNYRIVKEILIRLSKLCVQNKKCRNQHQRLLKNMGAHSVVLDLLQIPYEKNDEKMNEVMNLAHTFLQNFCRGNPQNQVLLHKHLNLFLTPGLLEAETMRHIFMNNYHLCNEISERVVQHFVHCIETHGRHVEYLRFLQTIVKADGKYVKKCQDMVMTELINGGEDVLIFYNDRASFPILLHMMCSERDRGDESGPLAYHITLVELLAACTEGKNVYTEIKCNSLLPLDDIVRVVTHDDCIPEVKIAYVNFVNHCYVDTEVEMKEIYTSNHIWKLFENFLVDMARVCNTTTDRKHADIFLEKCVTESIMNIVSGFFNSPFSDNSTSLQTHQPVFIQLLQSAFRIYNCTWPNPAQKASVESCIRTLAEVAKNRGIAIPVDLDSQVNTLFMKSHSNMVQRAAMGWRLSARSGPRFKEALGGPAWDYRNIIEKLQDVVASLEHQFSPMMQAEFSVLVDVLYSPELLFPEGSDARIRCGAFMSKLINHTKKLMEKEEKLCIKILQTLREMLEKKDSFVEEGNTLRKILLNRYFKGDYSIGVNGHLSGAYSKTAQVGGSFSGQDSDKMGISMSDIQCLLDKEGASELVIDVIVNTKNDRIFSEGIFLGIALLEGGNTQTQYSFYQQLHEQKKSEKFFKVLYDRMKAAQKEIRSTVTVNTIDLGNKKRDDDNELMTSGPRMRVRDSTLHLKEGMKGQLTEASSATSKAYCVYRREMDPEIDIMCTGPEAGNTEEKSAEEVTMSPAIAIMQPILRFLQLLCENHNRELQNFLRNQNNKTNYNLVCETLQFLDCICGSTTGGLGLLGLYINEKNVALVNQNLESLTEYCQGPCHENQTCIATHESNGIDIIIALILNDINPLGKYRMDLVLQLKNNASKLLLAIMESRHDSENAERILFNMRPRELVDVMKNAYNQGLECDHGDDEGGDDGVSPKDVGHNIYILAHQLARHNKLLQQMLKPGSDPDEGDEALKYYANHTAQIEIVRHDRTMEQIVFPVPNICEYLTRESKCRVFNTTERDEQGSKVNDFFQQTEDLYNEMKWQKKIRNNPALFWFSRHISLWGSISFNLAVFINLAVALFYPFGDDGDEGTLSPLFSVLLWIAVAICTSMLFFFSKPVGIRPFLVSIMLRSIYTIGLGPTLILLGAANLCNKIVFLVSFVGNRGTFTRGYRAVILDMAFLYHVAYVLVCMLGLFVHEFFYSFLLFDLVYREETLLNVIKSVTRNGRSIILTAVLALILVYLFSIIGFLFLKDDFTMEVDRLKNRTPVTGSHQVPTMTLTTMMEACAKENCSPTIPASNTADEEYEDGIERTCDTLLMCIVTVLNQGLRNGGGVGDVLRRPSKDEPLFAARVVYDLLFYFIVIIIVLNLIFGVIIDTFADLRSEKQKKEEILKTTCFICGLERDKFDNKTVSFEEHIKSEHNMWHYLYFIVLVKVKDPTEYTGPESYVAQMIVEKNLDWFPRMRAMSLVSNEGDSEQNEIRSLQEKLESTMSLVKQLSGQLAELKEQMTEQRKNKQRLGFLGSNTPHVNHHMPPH
- Experiment Notes: IA-DTB cysteine engagement
- Format: binding
- Stated Conditions: 22Rv1 cells, 20 μM probe, 1 h, relative to DMSO
Measured Endpoint: % engagement ITPR2_C579 (%)
// units = %; emit number, no label

compound="C=CC(=O)N1C[C@H](c2ccc(Br)cc2)[C@@H]1C(=O)Nc1cccc2cccnc12 [MY-1B]" measured_endpoint="% engagement ITPR2_C579" measure_unit=% measured_number=11.25

Request: Provide ITPR2_C579 (Homo sapiens) % engagement ITPR2_C579 reading for C=CC(=O)N1C[C@H](c2ccc(Br)cc2)[C@H]1C(=O)Nc1cccc2cccnc12 [MY-3B] .
Response: 70.75

Request: Provide ITPR2_C579 (Homo sapiens) % engagement ITPR2_C579 reading for C=CC(=O)N1C[C@H](c2ccc(Br)cc2)[C@H]1C(=O)Nc1cccc2cccnc12 [MY-3A] .
Response: 4.5

Request: Provide ITPR2_C579 (Homo sapiens) % engagement ITPR2_C579 reading for C=CC(=O)N1C[C@@H](c2ccc(Br)cc2)[C@H]1C(=O)Nc1cccc2cccnc12 [MY-1A] .
Response: 7.75

* * *

- Tested On: GRIN2C_C1105 (Homo sapiens, UniProt Q14957)
- Construct: endogenous in cells; host or cells: 22Rv1
- Sequence (Q14957 20-1233, other chains not shown): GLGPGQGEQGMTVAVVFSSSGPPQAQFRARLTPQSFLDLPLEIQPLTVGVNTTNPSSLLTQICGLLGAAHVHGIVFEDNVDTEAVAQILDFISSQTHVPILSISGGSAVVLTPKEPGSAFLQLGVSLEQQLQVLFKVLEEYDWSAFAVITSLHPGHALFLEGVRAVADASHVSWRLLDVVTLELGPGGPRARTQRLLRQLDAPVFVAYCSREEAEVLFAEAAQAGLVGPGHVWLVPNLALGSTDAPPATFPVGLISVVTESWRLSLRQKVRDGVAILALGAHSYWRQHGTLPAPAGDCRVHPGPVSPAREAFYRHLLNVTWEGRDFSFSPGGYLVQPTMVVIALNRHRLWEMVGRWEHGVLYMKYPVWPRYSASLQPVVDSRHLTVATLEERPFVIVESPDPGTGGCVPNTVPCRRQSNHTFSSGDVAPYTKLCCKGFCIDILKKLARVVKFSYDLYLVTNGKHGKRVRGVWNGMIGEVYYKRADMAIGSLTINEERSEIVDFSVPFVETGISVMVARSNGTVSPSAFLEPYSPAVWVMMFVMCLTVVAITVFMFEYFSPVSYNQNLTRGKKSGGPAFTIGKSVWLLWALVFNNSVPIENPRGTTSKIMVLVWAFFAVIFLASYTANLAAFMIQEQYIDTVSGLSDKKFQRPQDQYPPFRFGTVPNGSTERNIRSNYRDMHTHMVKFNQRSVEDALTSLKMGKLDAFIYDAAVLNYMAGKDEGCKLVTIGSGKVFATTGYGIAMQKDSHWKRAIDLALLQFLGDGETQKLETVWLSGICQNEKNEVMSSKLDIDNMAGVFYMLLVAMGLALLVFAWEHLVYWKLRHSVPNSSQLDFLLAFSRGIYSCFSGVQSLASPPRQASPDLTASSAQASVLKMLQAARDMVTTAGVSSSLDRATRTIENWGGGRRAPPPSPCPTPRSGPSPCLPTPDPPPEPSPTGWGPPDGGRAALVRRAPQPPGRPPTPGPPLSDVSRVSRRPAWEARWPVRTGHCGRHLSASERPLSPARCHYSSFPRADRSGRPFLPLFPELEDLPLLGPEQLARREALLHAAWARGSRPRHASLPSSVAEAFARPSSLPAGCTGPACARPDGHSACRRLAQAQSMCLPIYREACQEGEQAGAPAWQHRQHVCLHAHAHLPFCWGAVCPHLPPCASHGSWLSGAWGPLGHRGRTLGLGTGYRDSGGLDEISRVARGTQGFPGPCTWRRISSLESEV
- Experiment Notes: IA-DTB cysteine engagement
- Type: binding
- Stated Conditions: 22Rv1 cells, 20 μM probe, 1 h, relative to DMSO
The following compounds are listed with their measured % engagement GRIN2C_C1105 values.
// units = %; emit number, no label

compound=C=CC(=O)N1C[C@H](c2ccc(Br)cc2)[C@@H]1C(=O)Nc1cccc2cccnc12 measured_number=40.5
compound="C=CC(=O)N1C[C@H](c2ccc(Br)cc2)[C@H]1C(=O)Nc1cccc2cccnc12 [MY-3B]" measured_number=64.5
compound=C=CC(=O)N1C[C@@H](c2ccc(Br)cc2)[C@H]1C(=O)Nc1cccc2cccnc12 measured_number=78.5

Shift focus to the following entry.
Request: Give the reported value of % engagement GRIN2C_C1105 for this record: C=CC(=O)N1C[C@H](c2ccc(Br)cc2)[C@H]1C(=O)Nc1cccc2cccnc12 [MY-3A]
Response: 85

* * *

- Tested On: HARS2_C173 (Homo sapiens, UniProt P49590)
- Construct: endogenous in cells; host or cells: 22Rv1
- Sequence (P49590 34-506): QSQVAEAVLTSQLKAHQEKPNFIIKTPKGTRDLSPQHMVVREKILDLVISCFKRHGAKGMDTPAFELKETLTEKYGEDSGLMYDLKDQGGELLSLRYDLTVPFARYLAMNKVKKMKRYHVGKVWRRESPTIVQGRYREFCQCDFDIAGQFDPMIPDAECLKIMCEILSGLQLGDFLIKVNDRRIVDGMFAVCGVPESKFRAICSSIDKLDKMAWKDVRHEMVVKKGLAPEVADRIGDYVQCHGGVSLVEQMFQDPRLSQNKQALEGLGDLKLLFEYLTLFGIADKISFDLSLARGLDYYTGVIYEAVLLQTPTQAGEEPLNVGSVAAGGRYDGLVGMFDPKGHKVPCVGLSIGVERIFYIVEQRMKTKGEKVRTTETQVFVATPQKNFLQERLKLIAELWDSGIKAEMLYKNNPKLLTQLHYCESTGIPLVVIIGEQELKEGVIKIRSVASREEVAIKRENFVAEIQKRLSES
- Experiment Notes: IA-DTB cysteine engagement
- Type: binding
- Stated Conditions: 22Rv1 cells, 20 μM probe, 1 h, relative to DMSO
The following compounds are listed with their measured % engagement HARS2_C173 values.
// units = %; emit number, no label

compound="C=CC(=O)N1C[C@@H](c2ccc(Br)cc2)[C@H]1C(=O)Nc1cccc2cccnc12 [MY-1A]" tested_on="HARS2_C173 (Homo sapiens, UniProt P49590)" measure_unit=% measured_number=84.75
compound="C=CC(=O)N1C[C@H](c2ccc(Br)cc2)[C@H]1C(=O)Nc1cccc2cccnc12 [MY-3A]" tested_on="HARS2_C173 (Homo sapiens, UniProt P49590)" measure_unit=% measured_number=35.25
compound="C=CC(=O)N1C[C@H](c2ccc(Br)cc2)[C@@H]1C(=O)Nc1cccc2cccnc12 [MY-1B]" tested_on="HARS2_C173 (Homo sapiens, UniProt P49590)" measure_unit=% measured_number=63.75

Shift focus to the following entry.
Request: Give the reported value of % engagement HARS2_C173 for this record: C=CC(=O)N1C[C@H](c2ccc(Br)cc2)[C@H]1C(=O)Nc1cccc2cccnc12 [MY-3B]
Response: 35.75

* * *

- Tested On: HMOX2_C265 (Homo sapiens)
- Construct: endogenous in cells; host or cells: 22Rv1
- Sequence (P30519 whole entry): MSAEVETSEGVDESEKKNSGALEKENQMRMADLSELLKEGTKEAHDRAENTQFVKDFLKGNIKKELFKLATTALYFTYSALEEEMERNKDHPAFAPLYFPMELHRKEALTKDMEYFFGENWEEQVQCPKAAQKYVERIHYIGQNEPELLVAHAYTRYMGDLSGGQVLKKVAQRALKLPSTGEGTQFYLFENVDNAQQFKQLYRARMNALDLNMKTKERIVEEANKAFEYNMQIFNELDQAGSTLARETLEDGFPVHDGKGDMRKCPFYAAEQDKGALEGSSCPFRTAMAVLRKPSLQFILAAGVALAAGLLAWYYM
- Experiment Notes: IA-DTB cysteine engagement
- Format: binding
- Stated Conditions: 22Rv1 cells, 20 μM probe, 1 h, relative to DMSO
Measured Endpoint: % engagement HMOX2_C265 (%)
// units = %; emit number, no label

Use the examples below as a reference point.
compound="C=CC(=O)N1C[C@H](c2ccc(Br)cc2)[C@H]1C(=O)Nc1cccc2cccnc12 [MY-3B]" measured_number=79.5
compound="C=CC(=O)N1C[C@H](c2ccc(Br)cc2)[C@H]1C(=O)Nc1cccc2cccnc12 [MY-3A]" measured_number=71.75
compound=C=CC(=O)N1C[C@H](c2ccc(Br)cc2)[C@@H]1C(=O)Nc1cccc2cccnc12 measured_number=73.5

Request: Give the reported value of % engagement HMOX2_C265 for this record: C=CC(=O)N1C[C@@H](c2ccc(Br)cc2)[C@H]1C(=O)Nc1cccc2cccnc12
Response: 72.5

* * *

- Tested On: CEP128_C915 (Homo sapiens)
- Construct: endogenous in cells; host or cells: 22Rv1
- Experiment Notes: IA-DTB cysteine engagement
- Format: binding
- Stated Conditions: 22Rv1 cells, 20 μM probe, 1 h, relative to DMSO
Measured Endpoint: % engagement CEP128_C915

Use the examples below as a reference point.
compound=C=CC(=O)N1C[C@H](c2ccc(Br)cc2)[C@@H]1C(=O)Nc1cccc2cccnc12 result=67.5%
compound="C=CC(=O)N1C[C@H](c2ccc(Br)cc2)[C@H]1C(=O)Nc1cccc2cccnc12 [MY-3B]" result=25%

Request: Give the reported value of % engagement CEP128_C915 for this record: C=CC(=O)N1C[C@H](c2ccc(Br)cc2)[C@H]1C(=O)Nc1cccc2cccnc12 [MY-3A]
Response: 7%

Request: Give the reported value of % engagement CEP128_C915 for this record: C=CC(=O)N1C[C@@H](c2ccc(Br)cc2)[C@H]1C(=O)Nc1cccc2cccnc12
Response: −13%

* * *

The following compounds are listed with their measured % engagement TRMT61A_C209 values.
- Tested On: TRMT61A_C209 (Homo sapiens, UniProt Q96FX7)
- Construct: endogenous in cells; host or cells: 22Rv1
- Sequence (Q96FX7 whole entry): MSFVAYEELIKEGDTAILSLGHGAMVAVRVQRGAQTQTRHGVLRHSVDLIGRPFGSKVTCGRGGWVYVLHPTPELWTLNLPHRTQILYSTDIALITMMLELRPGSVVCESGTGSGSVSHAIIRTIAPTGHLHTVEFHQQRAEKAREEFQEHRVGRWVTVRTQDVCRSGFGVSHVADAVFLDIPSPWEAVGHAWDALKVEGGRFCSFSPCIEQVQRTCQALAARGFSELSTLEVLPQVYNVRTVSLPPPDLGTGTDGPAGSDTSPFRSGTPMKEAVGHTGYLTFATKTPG
- Experiment Notes: IA-DTB cysteine engagement
- Type: binding
- Stated Conditions: 22Rv1 cells, 20 μM probe, 1 h, relative to DMSO
// units = %; emit number, no label

Use the examples below as a reference point.
compound="C=CC(=O)N1C[C@H](c2ccc(Br)cc2)[C@H]1C(=O)Nc1cccc2cccnc12 [MY-3A]" measured_number=18.75
compound="C=CC(=O)N1C[C@H](c2ccc(Br)cc2)[C@H]1C(=O)Nc1cccc2cccnc12 [MY-3B]" measured_number=56
compound=C=CC(=O)N1C[C@H](c2ccc(Br)cc2)[C@@H]1C(=O)Nc1cccc2cccnc12 measured_number=67

Shift focus to the following entry.
Request: Give the reported value of % engagement TRMT61A_C209 for this record: C=CC(=O)N1C[C@@H](c2ccc(Br)cc2)[C@H]1C(=O)Nc1cccc2cccnc12
Response: 40.75

* * *

- Tested On: PLPPR2_C207 (Homo sapiens)
- Construct: endogenous in cells; host or cells: 22Rv1
- Sequence (Q96GM1 whole entry): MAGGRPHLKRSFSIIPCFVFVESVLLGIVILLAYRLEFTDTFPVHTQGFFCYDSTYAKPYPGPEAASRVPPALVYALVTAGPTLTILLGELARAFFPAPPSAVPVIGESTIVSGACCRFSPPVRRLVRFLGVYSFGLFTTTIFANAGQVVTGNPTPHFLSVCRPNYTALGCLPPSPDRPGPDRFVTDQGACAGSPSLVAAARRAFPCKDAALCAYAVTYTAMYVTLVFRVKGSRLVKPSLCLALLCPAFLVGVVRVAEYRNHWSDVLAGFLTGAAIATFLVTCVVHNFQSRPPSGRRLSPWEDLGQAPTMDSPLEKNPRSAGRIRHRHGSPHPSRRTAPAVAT
- Experiment Notes: IA-DTB cysteine engagement
- Type: binding
- Stated Conditions: 22Rv1 cells, 20 μM probe, 1 h, relative to DMSO
- Experimental: Sample preparation: Cells (adherent: 15 cm dishes, suspension: 2 million cells/mL) were treated with electrophilic probes in situ for indicated times and concentrations, washed with ice-cold PBS, and flash frozen in liquid nitrogen. […] Whole cell lysates protein content was measured using a standard DC protein assay (Bio-Rad) and 500 μL (2 mg/mL protein content) were treated with 5 μL of 10 mM 1A-DTB (in DMSO) for 1 h at ambient temperature with occasional vortexing. […]
Measured Endpoint: % engagement PLPPR2_C207 (%)
// units = %; emit number, no label

Request: Provide PLPPR2_C207 (Homo sapiens) % engagement PLPPR2_C207 reading for C=CC(=O)N1C[C@H](c2ccc(Br)cc2)[C@H]1C(=O)Nc1cccc2cccnc12 [MY-3A] .
Response: 46.5

Request: Provide PLPPR2_C207 (Homo sapiens) % engagement PLPPR2_C207 reading for C=CC(=O)N1C[C@H](c2ccc(Br)cc2)[C@H]1C(=O)Nc1cccc2cccnc12 [MY-3B] .
Response: 71

Request: Provide PLPPR2_C207 (Homo sapiens) % engagement PLPPR2_C207 reading for C=CC(=O)N1C[C@@H](c2ccc(Br)cc2)[C@H]1C(=O)Nc1cccc2cccnc12 .
Response: 30.5

Request: Provide PLPPR2_C207 (Homo sapiens) % engagement PLPPR2_C207 reading for C=CC(=O)N1C[C@H](c2ccc(Br)cc2)[C@@H]1C(=O)Nc1cccc2cccnc12 .
Response: 31
